Field: maximum recommended daily dose (mmol/kg-bw/day). Provide a value for each of the molecules that follow.
- Tested on: human maximum recommended daily dose, FDA database
- Protocol notes: DSSTox (FDAMDD) FDA Maximum (Recommended) Daily Dose Database
- Protocol conditions: TherapeuticCategory: mineralcorticoid; hits give low values
Lab note: jot down the number only; don't add units.

Data request: For the molecule shown here, CC(=O)OCC(=O)[C@@]1(O)CC[C@H]2[C@@H]3CCC4=CC(=O)CC[C@]4(C)[C@@]3(F)[C@@H](O)C[C@@]21C , give the reported maximum recommended daily dose (mmol/kg-bw/day).
Data returned: 3.95e-06

Data request: C[C@]12CCC(=O)C=C1CC[C@H]1[C@@H]3CC[C@](O)(C(=O)CO)[C@@]3(C)C[C@H](O)[C@@]12F , same question.
Data returned: 4.39e-06

Data request: What do you have for C[C@]12CCC(=O)C=C1CC[C@@H]1[C@@H]2[C@@H](O)C[C@]2(C=O)[C@@H](C(=O)CO)CC[C@@H]12 ?
Data returned: 2.31e-05

Data request: And what about the molecule CC(=O)OCC(=O)[C@H]1CC[C@H]2[C@@H]3CCC4=CC(=O)CC[C@]4(C)[C@H]3CC[C@]12C ?
Data returned: 0.00448

From: PubChem BioAssay AID1195
